Where do these numbers come from? They come from patent US20220226270A1.

Tested on: Sprague-Dawley rats, middle cerebral artery occlusion (MCAo)
TEST PROTOCOL: Experimental ischemic stroke, 2 h middle cerebral artery occlusion (MCAo)
Format: in vivo, rat
STATED CONDITIONS: T2WI on day 7; 5 μg/50 μl into right lateral ventricle 1 h after 2 h of MCAo
Measured reduction of total lesion volume compared to CSF-treated group, listed per entry.
The reply should be a number in %, with the unit left off.

Known reduction of total lesion volume compared to CSF-treated group results, listed for orientation:
query: In one line, give reported reduction of total lesion volume compared to CSF-treated group of the entry CC/C=C\C[C@H](O)\C=C/C=C/C=C/[C@H](O)C/C=C\C/C=C\CCCCCCCCCCCCC(=O)[O-].[Na+] .
result: 60

query: In one line, give reported reduction of total lesion volume compared to CSF-treated group of the entry CC/C=C\C[C@H](O)\C=C/C=C/C=C/[C@H](O)C/C=C\C/C=C\CCCCCCCCCCCCC(=O)OC .
result: 56

query: In one line, give reported reduction of total lesion volume compared to CSF-treated group of the entry CC/C=C\C[C@H](O)\C=C/C=C/C=C/[C@H](O)C/C=C\C/C=C\CCCCCCCCCCCCCCC(=O)[O-].[Na+] .
result: 99

Continuing:
query: In one line, give reported reduction of total lesion volume compared to CSF-treated group of the entry CC/C=C\C[C@H](O)\C=C/C=C/C=C/[C@H](O)C/C=C\C/C=C\CCCCCCCCCCCCCCC(=O)OC .
result: 91
